Recorded Signal/background for the following binders
Biological target: T1, KEA peptide complexed with HLA-A*02:01 on T2 cells (human)
T1 construct: whole, on cells
Experiment: flow cytometry, peptide-loaded T2 cells;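 also: binding of single-chain Fv antibody constructs, raised in XenoMouse, to peptide-pulsed T2 cells measured by flow cytometry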
Respond with the number and no other words.

18182-E6 (scFv, scFv in bacterial lysate, detected with anti-Flag M2) scFv: EVQLLESGGGLVQPGGSLRLSCAASGFTFSSYAMSWVRQAPGKGLEWVSAISGSGGGTYYADSVKGRFTISRDNSKNTLYLQMNSLRAEDTAVYYCATGKGVHLNFDYWGQGTLVTVSSGGGGSGGGGSGGGGSELVLTQPSSVSVAPGQTARITCGGNNIGSKSVHWYQQKPGQAPVLVVYDDNDRPSGIPERFSGSNFGNTATLIISRVAAGDEADYYCQVWDSSSDHVVFGGGTKLTVL; 0.9
18093-B11 (scFv, scFv in bacterial lysate, detected with anti-Flag M2) scFv: EVQLLESGGGLVKPGGSLRLSCAASGFTFSDYYMSWIRQAPGKGLEWVSYISKSGSTIYYADSVKGRFTISRDNAKNSLYLQMNSLRAEDTAVYYCATYNYGHFDYWGQGTLVTVSSGGGGSGGGGSGGGGSELVLTQPPSVSVAPGQTARITCGGNNIGSKSVHWYQQKPGQAPVLVVYDDSDRPSGIPERFSGSNSGNTATLTISRVEAGDEADYYCQVWDSSSDHHVVFGGGTKLTVL; 1.1
18182-G6 (scFv, scFv in bacterial lysate, detected with anti-Flag M2) scFv: EVQLLESGGGLVQPGGSLRLSCAASGFTFSSYAMSWVRQAPGKGLEWVSAISGSGGGTYYADSVKGRFTISRDNSKNTLYLQMNSLRAEDTAAYYCVTGKGVHLGFDYWGQGTLVTVSSGGGGSGGGGSGGGGSELVLTQPPSVSVAPGQTARITCGGNNIGSKSVHWHQQKPGQSPVLVIYDDNDRPSGIPERFSGFNSGNTATLTISRVEAGDEADYYCQVWDSSSDHVVFGGGTKLTVL; 1
18179-A7 (scFv, scFv in bacterial lysate, detected with anti-Flag M2) scFv: EVQLLESGGGLVKPGGSLRLSCAASGFTFSNAWMSWVRQAPGKGLEWVGRIKGNTYGGTTDYAAPVKGRFTISRDDSKNTLFLQMNSLKTEDTAVYYCTTPSYSGSYYNYFSVMDVWGQGTTVTVSSGGGGSGGGGSGGGGSELVMTQSPSSLSASVGDRVTITCRTSQSISSYLNWYQQKPGRAPKLLIFAASSLQGGVPSRFSGSGSGTDFTLTISSLQPEDFATYYCQQTYSMPFTFGPGTKVDIK; 0.9
18181-F1 (scFv, scFv in bacterial lysate, detected with anti-Flag M2) scFv: EVQLLESGGGLVKPGGSLRLSCAASGFTFSNAWMSWVRQAPGKGLEWVGRIKGNTYGGTTDYAAPVKGRFTISRDDSKNTLFLQMNSLKTEDTAVYYCTTPSYSGSYYNYFSVMDVWGQGTTVTVSSGGGGSGGGGSGGGGSELVMTQSPSSLSASVGDRVTITCRTSQSISSYLNWYQQKPGRAPKLLIFAASSLQGGVPSRFSGSGSGTDFTLTISSLQPEDFATYYCQQTYSSPFTFGPGTKLEIK; 0.9

Dear colleague, I am looking for the recorded Signal/background of the following binder: 18181-E2 (scFv, scFv in bacterial lysate, detected with anti-Flag M2) scFv: EVQLLESGPGLVKPSQTLSLTCTVSGDSISSNPYYWSWIRQHPGKGLEWIGYISHSGSTYYNPSLKSRVTISVDTSKNQFSLNLTSVTAADTAVYYCARDRLWFGVLNYYYGMDVWGLGTTVTVSSGGGGSGGGGSGGGGSELVMTQSPLSLPVTPGEPASISCRSSQSLLHSSGYNYLDWYLQKPGQSPQLLIYLGSNRASGVPDRFSGSGSGTDFTLKISKVEAEDVGVYYCMQALQTPRTFGQGTKVDIK
1

Recorded Signal/background for 18089-B2 (scFv, scFv in bacterial lysate, detected with anti-Flag M2) scFv: EVQLLESGGGLVQPGGSLRLSCAASGFTFSSYAMSWVRQAPGRGLEWVSTISISGGSTNYADSVKGRFTISRDNSKNTLYLQMNSLRAEDTAVYYCAKDGGSGWFPKLLHYGLDVWGQGTTVTVSSGGGGSGGGGSGGGGSELQMTQSPSSLSASVGDRVTITCQASQDISNYLNWYQQKPGKAPKLLIYAASSLQSGVPSRFSGSGSGTDFTLTISSLQPEDFATYYCQQSYSIPLTFGGGTKVEIK , please?
1

Quick one: Signal/background of 18081-E7 (scFv, scFv in bacterial lysate, detected with anti-Flag M2) scFv: EVQLLESGPGLVKPSETLSLTCTVSGDSISSSRYYWGWIRQPPGKGLEWIGSIYYSGSTYYNPSLKSRVTISVDTSKNQFSLKLSSVTAADTAVYYCARGIFGVITYFDYWGQGTLVTVSSGGGGSGGGGSGGGGSELVMTQTPDSLAVSLGERATINCKSSQSVLYSSNNKNYLAWYQQKPGQPPKLLIYWASTRESGVPDRFSGSGSGTDFTLTISSLQAEDVAVYYCQQYYSTPLTFGGGTKVEIK ?
1

May I ask what Signal/background has been recorded for 18181-B8 (scFv, scFv in bacterial lysate, detected with anti-Flag M2) scFv: EVQLLESGPGLVKPSQTLSLTCTVSGGSISSGGYYWSWIRQHPGKGLEWIGYISHSGSTYYNPSLKSRVTISVDTSKNQFSLNLTSVTAADTAVYYCAREKMWFGVLNYYYGMDVWGQGTTVTVSSGGGGSGGGGSGGGGSELVMTQTPLSLPVTPGEPASISCRSSQSLLHRNGYNYLDWYLQKPGQSPQLLIYLGSNRASGVPDRFIGSGSGTDFTLEISRVEAEDVGVYYCMQALQTPSFGQGTKVEIK ?
0.9

Can you share its Signal/background? I mean this binder: 18179-B12 (scFv, scFv in bacterial lysate, detected with anti-Flag M2) scFv: EVQLLESGGGLVQPGGSLRLSCAASGFTFSNAWMSWVRQAPGKGLEWVGRIKGNTYGGTTDYAAPVKGRFTISRDDSKNTLFLQMNSLKTEDTAVYYCTTPSNSGSYYNYFSVMDVWGQGTTVTVSSGGGGSGGGGSGGGGSELVMTQSPSSLSASVGDRVTITCRTSQSISSYLNWFQQKPGKAPKLLIFAASSLQSGVPSRFSGSGSGTDFTLTISSLQPEDFATYYCQQTYSMPFTFGPGTKVEIK
1
